Measured values drawn from patent US20200308301A1 for this set.

- STUDY TARGET: NOV1401; also: test concentration or dose not given here
- Sequence (VH, as listed by the source, chain 1 of 2): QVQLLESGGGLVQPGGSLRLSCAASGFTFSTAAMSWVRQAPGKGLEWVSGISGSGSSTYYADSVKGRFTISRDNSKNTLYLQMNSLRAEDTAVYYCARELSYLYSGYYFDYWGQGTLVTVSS
- Sequence (VL, as listed by the source, chain 2 of 2): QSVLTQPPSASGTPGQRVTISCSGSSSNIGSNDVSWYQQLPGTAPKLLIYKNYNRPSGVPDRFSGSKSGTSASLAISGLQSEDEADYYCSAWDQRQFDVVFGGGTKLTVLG
- ASSAY REMARKS: cell-based or functional assay
MEASUREMENT NAME: TGA percentage reversal, NOV1401/anti NOV1401 ratio 1/3 (n/n) (%)
# output: bare number, implied unit %

Task item: I have this binder here, IDT9 (Fab, V domains shown, Fab; also called anti-NOV1401 Fab IDT9) VH: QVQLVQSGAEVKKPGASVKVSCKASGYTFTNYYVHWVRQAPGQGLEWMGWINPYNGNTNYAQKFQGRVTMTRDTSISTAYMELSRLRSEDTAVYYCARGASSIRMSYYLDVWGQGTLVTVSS VL: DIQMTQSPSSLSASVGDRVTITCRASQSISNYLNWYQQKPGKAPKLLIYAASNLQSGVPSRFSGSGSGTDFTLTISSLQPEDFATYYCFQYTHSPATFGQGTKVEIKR , and I need its recorded TGA percentage reversal, NOV1401/anti NOV1401 ratio 1/3 (n/n).
Reply: 61
